experiment: gradient 5% acetonitrile 3 min, to 50% in 2 min, to 85% in 15 min, held 3 min, 100 µL/min; details: column: Zorbax Extend-C18 2.1 x 50 mm; eluents: water / acetonitrile, 0.1% formic acid
Endpoint: RP-LC retention time (s)
Response body: numeric value in s, unit text excluded.

Query: Sample CC(C)CN1CCCn2ccnc2C1C1CCN(C(=O)C(C)C)CC1 (stereo not given) — what was its RP-LC retention time?
Reply: 587

Query: Sample Fc1cccc(-n2cc(-c3noc(-c4ccccc4F)n3)nn2)c1 — what was its RP-LC retention time?
Reply: 1050

Query: Sample Cc1ccc(-c2csc(Nc3c(C)n(C)n(-c4ccccc4)c3=O)n2)cc1 — what was its RP-LC retention time?
Reply: 788

Query: Sample CCn1cc(-c2nc(C)c(C(=O)Nc3cc(OC)ccc3OC)s2)c2cccnc21 — what was its RP-LC retention time?
Reply: 1130

Query: Sample CN1CCC2(CC1)CN(C(=O)CCc1nc3ccccc3s1)Cc1ccccc1O2 — what was its RP-LC retention time?
Reply: 671

----------
Kindly supply the reported RP-LC retention time values for the records listed here.
assay: gradient 5% acetonitrile 3 min, to 50% in 2 min, to 85% in 15 min, held 3 min, 100 µL/min; details: column: Zorbax Extend-C18 2.1 x 50 mm; eluents: water / acetonitrile, 0.1% formic acid
For clarity, give the value followed by its unit.

Query: Sample CCc1ccc(NS(=O)(=O)c2c(C)nc3sc4cc(C)ccc4n3c2=O)cc1 — what was its RP-LC retention time?
Reply: 1240 s

Query: Sample Oc1ccc2c3c1O[C@H]1[C@@H](O)CC[C@@]4(O)C(C2)N(CC2CCC2)CCC314 (stereo not given in full) — what was its RP-LC retention time?
Reply: 635 s

Query: Sample CCOc1ccc(CC(=O)N2CCN(c3cc(-c4cccs4)[nH]n3)CC2)cc1 — what was its RP-LC retention time?
Reply: 809 s

Query: Sample CCOC(=O)c1noc2ncnc(N(Cc3ccccc3)C(C)C)c12 — what was its RP-LC retention time?
Reply: 1080 s

Query: Sample CCN1CCN(C(=S)Nc2ccc3nc(N4CCN(CC)CC4)cc(C)c3c2)CC1 — what was its RP-LC retention time?
Reply: 519 s

----------
assay: gradient 5% acetonitrile 3 min, to 50% in 2 min, to 85% in 15 min, held 3 min, 100 µL/min; details: column: Zorbax Extend-C18 2.1 x 50 mm; eluents: water / acetonitrile, 0.1% formic acid
Endpoint: RP-LC retention time (s)
Response body: numeric value in s, unit text excluded.

Query: Sample Cc1ccc(CNC(=O)C2CCN(S(=O)(=O)c3ccc4[nH]c(=O)ccc4c3)CC2)cc1 — what was its RP-LC retention time?
Reply: 738

Query: Sample N#Cc1ccccc1NC(=O)CSc1cc(N2CCN(c3ccccc3F)CC2)ncn1 — what was its RP-LC retention time?
Reply: 1120

Query: Sample CC1CCN(S(=O)(=O)c2ccc3nn(Cc4ccccc4)c(=O)n3c2)CC1 — what was its RP-LC retention time?
Reply: 893

Query: Sample CCSc1ccccc1C(=O)NCCS(=O)(=O)N1CCc2ccccc2C1 — what was its RP-LC retention time?
Reply: 862

Query: Sample Cc1ccc(CCNC(=O)Cc2csc3nc(-c4ccc(C)c(C)c4)cn23)cc1 — what was its RP-LC retention time?
Reply: 884

----------
experiment: gradient 5% acetonitrile 3 min, to 50% in 2 min, to 85% in 15 min, held 3 min, 100 µL/min; details: column: Zorbax Extend-C18 2.1 x 50 mm; eluents: water / acetonitrile, 0.1% formic acid
Kindly supply the reported RP-LC retention time values for the records listed here.
Response body: numeric value in s, unit text excluded.

Query: Sample COc1ccc(CN2CCc3nc(N4CCN(c5ccccn5)CC4)ncc3C2)c(OC)c1OC — what was its RP-LC retention time?
Reply: 555

Query: Sample CC1CCc2nn(CC(=O)NCCCN(Cc3ccccc3)C(C)C)cc2C1 (centres undefined) — what was its RP-LC retention time?
Reply: 592

Query: Sample COc1ccc2c(c1)C1(CCN(C(=O)c3cccc(F)c3)C1)C(=O)N2 (centres undefined) — what was its RP-LC retention time?
Reply: 717

Query: Sample O=C(c1cccc(N2CCCS2(=O)=O)c1)N1CCN(c2ccccn2)CC1 — what was its RP-LC retention time?
Reply: 578

Query: Sample CCN(CC)C(=O)c1ccc2c(c1)N(CC(=O)Nc1ccc(C(C)=O)cc1)C(=O)CO2 — what was its RP-LC retention time?
Reply: 700

Query: Sample Cc1cccc(CNC(=O)CN2CCN(Cc3ccc(F)cc3Cl)C2=O)c1 — what was its RP-LC retention time?
Reply: 889

Query: Sample FC(F)(F)c1nc(N2CCN(C(c3ccccc3)c3ccccc3)CC2)nc2c1CCCCC2 — what was its RP-LC retention time?
Reply: 559

Query: Sample COc1cc(C(=O)N2CCC3(CC2)NC(=O)c2ccc(F)cc2N3C)cc(OC)c1OC — what was its RP-LC retention time?
Reply: 655

Query: Sample O=C(NC1CC1)[C@@H]1C[C@H](Oc2ccccc2)CN1C(=O)c1cc2ccccc2[nH]1 — what was its RP-LC retention time?
Reply: 847

----------
assay: gradient 5% acetonitrile 3 min, to 50% in 2 min, to 85% in 15 min, held 3 min, 100 µL/min; conditions: column: Zorbax Extend-C18 2.1 x 50 mm; eluents: water / acetonitrile, 0.1% formic acid
Kindly supply the reported RP-LC retention time values for the records listed here.
Response body: numeric value in s, unit text excluded.

Query: Sample CCC1=CC2CN3CCc4c([nH]c5ccccc45)[C@@](C(=O)OC)(C2)C13 — what was its RP-LC retention time?
Reply: 681

Query: Sample Cc1cccc(-c2nnc(SCc3cc(=O)n4nc(C)sc4n3)o2)c1 — what was its RP-LC retention time?
Reply: 782

Query: Sample Cc1cccc(CN2C(=O)CN(S(C)(=O)=O)CC2(C)C(=O)NCc2ccc(Cl)cc2)c1 (stereo not given) — what was its RP-LC retention time?
Reply: 886

Query: Sample COC(=O)c1ccc(-c2nc3cnccn3c2Nc2ccc(C)c(Br)c2)cc1 — what was its RP-LC retention time?
Reply: 1040

Query: Sample c1ccc(-c2nnc(Cc3ccc4c(c3)OCO4)o2)cc1 — what was its RP-LC retention time?
Reply: 894

Query: Sample CN1c2ccc(Cl)cc2C(=O)NC12CCN(C(=O)NCc1ccccc1)CC2 — what was its RP-LC retention time?
Reply: 789

Query: Sample Cc1cccc(NC(=O)CN2c3ccccc3NC3=C(C(=O)CCC3)C2c2ccco2)c1C (stereo not given) — what was its RP-LC retention time?
Reply: 851

Query: Sample Cc1ccc(N2N=C(C(=O)N3CCN(CC(C)C)CC3)S(=O)(=O)c3cccnc32)cc1 — what was its RP-LC retention time?
Reply: 674

Query: Sample COc1cccc(Cn2c(=O)c3sccc3n(Cc3nc(-c4ccc(F)cc4)no3)c2=O)c1 — what was its RP-LC retention time?
Reply: 1070

Query: Sample O=C(NCc1cccc(Cl)c1)C1CCN(C(=O)c2ncn3c2COC(c2ccccc2)C3)CC1 (stereo not given) — what was its RP-LC retention time?
Reply: 760

Query: Sample COc1ccc(OCc2nnc3sc(-c4ccc5c(c4)OCCO5)nn23)cc1 — what was its RP-LC retention time?
Reply: 906

Query: Sample CC(C)(C)OC(=O)N1CCN(c2ncnc(N)c2[N+](=O)[O-])CC1 — what was its RP-LC retention time?
Reply: 691

Query: Sample c1ccc(Cc2nn3c(CSc4ccccc4)nnc3s2)cc1 — what was its RP-LC retention time?
Reply: 927

Query: Sample COc1cccc(-n2cc(C(=O)OCc3cccnc3)c3ccccc3c2=O)c1 — what was its RP-LC retention time?
Reply: 754

Query: Sample Cn1ncc(NC(=O)c2ccccc2F)c(N2CCOCC2)c1=O — what was its RP-LC retention time?
Reply: 777

Query: Sample COc1ccccc1OCC1c2ccsc2CCN1C(=O)CN(CC1CC1)C(C)=O (stereo not given) — what was its RP-LC retention time?
Reply: 828

Query: Sample CCCNC(=O)Cn1c(C)nc2ccccc21 — what was its RP-LC retention time?
Reply: 571

Query: Sample CC(NC(=O)c1ccccc1)c1nc(-c2ccc3oc(-c4ccccc4)nc3c2)no1 (stereo not given) — what was its RP-LC retention time?
Reply: 1090

Query: Sample O=C(Cc1ccc(F)cc1)NCC1CC(=O)N(Cc2ccc(F)cc2)C1 (stereo not given) — what was its RP-LC retention time?
Reply: 871

Query: Sample O=C(CN1CCN(Cc2cccc(Cl)c2)C1=O)NC1CC1 — what was its RP-LC retention time?
Reply: 683

----------
Kindly supply the reported RP-LC retention time values for the records listed here.
assay: gradient 5% acetonitrile 3 min, to 50% in 2 min, to 85% in 15 min, held 3 min, 100 µL/min; conditions: column: Zorbax Extend-C18 2.1 x 50 mm; eluents: water / acetonitrile, 0.1% formic acid
Response body: numeric value in s, unit text excluded.

Query: Sample Cc1noc(C)c1S(=O)(=O)N1CCC(c2noc(COCC3CC3)n2)CC1 — what was its RP-LC retention time?
Reply: 931

Query: Sample COCCCNC(=O)C(C)n1c(=O)c(C(F)(F)F)nc2ccccc21 (stereo not drawn) — what was its RP-LC retention time?
Reply: 854

Query: Sample CCC(=O)Nc1ccc(CCc2nc3ccc(C(=O)NC(C)Cc4ccco4)cc3[nH]2)cc1 (stereo not drawn) — what was its RP-LC retention time?
Reply: 630

Query: Sample CCOc1ccc(C(=O)N2CCC3(CC2)N=C(c2ccccc2)NO3)cc1 — what was its RP-LC retention time?
Reply: 799

Query: Sample CC(C)(C)OC(=O)COC(=O)c1cn(-c2cccc(F)c2)c(=O)c2ccccc12 — what was its RP-LC retention time?
Reply: 1160

Query: Sample CCCNC(=O)c1ccc(-c2csc(C)n2)cc1 — what was its RP-LC retention time?
Reply: 754

Query: Sample Cn1cc2c3c(cccc31)CN(C(=O)c1c(F)cccc1F)CC2 — what was its RP-LC retention time?
Reply: 920

Query: Sample CC(C)(C)c1ccc(OCCCC(=O)Nc2nc(-c3ccccc3)cs2)cc1 — what was its RP-LC retention time?
Reply: 1300

Query: Sample COc1cc2c3c(c1OC)-c1cc4c(cc1CC3(C#N)N(C(=O)c1ccccc1)CC2)OCO4 (stereo not drawn) — what was its RP-LC retention time?
Reply: 987

Query: Sample CCc1ccc(-n2ncc3c(=O)n(Cc4nc(-c5ccc(OC)cc5)no4)cnc32)cc1 — what was its RP-LC retention time?
Reply: 1120

Query: Sample O=C(c1cnn2c(C(F)(F)F)cc(-c3ccccc3)nc12)N1CCN(c2ccccn2)CC1 — what was its RP-LC retention time?
Reply: 687

Query: Sample Cc1cc(C)n(-c2ccc(SCc3ccccc3Cl)nn2)n1 — what was its RP-LC retention time?
Reply: 1150

Query: Sample Cc1cccc(NC(=O)C(C)n2cnc3nc4c(cc3c2=O)CCCC4)c1C (stereo not drawn) — what was its RP-LC retention time?
Reply: 765

Query: Sample CC(C)c1ccc(-c2nc(-c3cccc(-c4ccnn4C)c3)no2)cc1 — what was its RP-LC retention time?
Reply: 1390

Query: Sample COc1cc(CN2C[C@@H]3C(=O)N(CCc4ccccc4)C(=O)[C@@H]3C2)cc(OC)c1 — what was its RP-LC retention time?
Reply: 753

Query: Sample COC(=O)COc1cc(-c2cccc(Cl)c2)nc2ccc(NC(=O)c3ccco3)cc12 — what was its RP-LC retention time?
Reply: 886

Query: Sample CSCc1csc(NC(=O)C2CCCC2)n1 — what was its RP-LC retention time?
Reply: 782

Query: Sample Cc1ccc2[nH]cc(CCNC(=O)c3ccc(N4CCCC4)c(S(=O)(=O)N4CCCC4)c3)c2c1 — what was its RP-LC retention time?
Reply: 998

Query: Sample CCOc1ccc(NC(=O)c2nc(N(C)C)c3c(C)cc(C)nc3n2)cc1 — what was its RP-LC retention time?
Reply: 661

Query: Sample Cc1ccc(CNC(=O)C2(C)CCN(S(=O)(=O)c3ccccc3)CC2)cc1 — what was its RP-LC retention time?
Reply: 925

Query: Sample CCOC(=O)N1CCN(C(=O)c2cccc([N+](=O)[O-])c2C)CC1 — what was its RP-LC retention time?
Reply: 695

Query: Sample CCOc1ccccc1-c1noc(CN2N=NC3C(=O)N(c4cc(OC)cc(OC)c4)C(=O)C32)n1 (stereo not drawn) — what was its RP-LC retention time?
Reply: 962

Query: Sample CN(C)S(=O)(=O)N1CCCC1Cc1noc(-c2cccnc2)n1 (stereo not drawn) — what was its RP-LC retention time?
Reply: 746

Query: Sample Cc1nn(CC(=O)NCCC2=CCCCC2)c(=O)c2c(C)n(-c3ccccc3)nc12 — what was its RP-LC retention time?
Reply: 870

Query: Sample COC(=O)c1ccc(CSc2nnc(CNC(=O)c3cccc([N+](=O)[O-])c3C)o2)o1 — what was its RP-LC retention time?
Reply: 732

Query: Sample O=C1CCCN1c1ccc(Cn2nc3ccc(-c4ccc(Cl)cc4)nn3c2=O)cc1 — what was its RP-LC retention time?
Reply: 742

Query: Sample O=C(Nc1ccc(Cl)cc1)C1CCN(C(=O)c2ncn3c2COC(c2ccc(F)cc2)C3)CC1 (stereo not drawn) — what was its RP-LC retention time?
Reply: 874

Query: Sample CCCCN1C(=O)CN(C2CCCCC2)C(=O)C1c1ccc(OC)c(OC)c1 (stereo not drawn) — what was its RP-LC retention time?
Reply: 877

Query: Sample CCc1nc2ccc(-c3noc(-c4cccs4)n3)cc2n1CC — what was its RP-LC retention time?
Reply: 702

Query: Sample CCOC(=O)c1ccccc1NC(=O)Cn1cccc(-c2nc(-c3ccc(Cl)cc3)no2)c1=O — what was its RP-LC retention time?
Reply: 1160

Query: Sample COc1cccc(-c2noc(Cc3nnc(-c4cc(F)cc(F)c4)o3)n2)c1OC — what was its RP-LC retention time?
Reply: 968

Query: Sample CC1CCN(C(=O)c2ccc3ncnc(N4CCCCC4)c3c2)CC1 — what was its RP-LC retention time?
Reply: 638

Query: Sample CCn1c(=O)c2ccn(CC(=O)Nc3ccc4c(c3)OCCO4)c2n(CC)c1=O — what was its RP-LC retention time?
Reply: 701

Query: Sample Cc1noc([C@@H]2CN(C(=O)c3ccoc3C)C[C@H]2C(N)=O)n1 — what was its RP-LC retention time?
Reply: 599

Query: Sample CN(C)CC1(O)CCC2(CCN(C(=O)C3CCCC3)CC2)CC1 — what was its RP-LC retention time?
Reply: 591

Query: Sample CCc1ccc(NC(=O)Cn2nc3nc(N4CCCC4)ccn3c2=O)cc1 — what was its RP-LC retention time?
Reply: 678

Query: Sample CCCN1C(=O)COc2ccc(-c3noc(-c4ccccc4C(F)(F)F)n3)cc21 — what was its RP-LC retention time?
Reply: 1230

Query: Sample Cc1cc(C(=O)NC2CC2)c2cc(Cl)ccc2n1 — what was its RP-LC retention time?
Reply: 669

Origin of the recorded values: the METLIN SMRT retention time set (Domingo-Almenara et al. 2019)
